Reported melting point values for a set of compounds

Ask: Give a short answer stating reported melting point for COc1ccc(O)c(C2(O)C(=O)Nc3cccc(Br)c32)n1 (stereo unspecified) .
Reply: 172 to 175 °C

Ask: Give a short answer stating reported melting point for `CCn1ncc2c(-c3cncc(C)c3)c(/C=C/C(=O)O)c(COC)nc21` .
Reply: 195 to 196 °C

Ask: Give a short answer stating reported melting point for `Cc1nn(C)c2nc(C(C)C)c(CO)c(-c3ccc(F)cc3)c12` .
Reply: 166 to 168 °C

Ask: Give a short answer stating reported melting point for `O=C(O)C1(c2ccc(Nc3nc(N4CCOCC4)nc4c3CCC4)cc2)CCC1` .
Reply: 279 to 281 °C

Ask: Give a short answer stating reported melting point for `Cn1cc(C(=O)NCc2ccc(F)cc2)c(=O)c2cc(CN3CCOCC3)sc21` .
Reply: 214 to 216 °C

Ask: Give a short answer stating reported melting point for `O=c1[nH]c2c(c(=O)[nH]1)N=CCN2CCCCN1CCC(OC(c2ccccc2)c2ccccc2)CC1` .
Reply: 157 to 159 °C

Ask: Give a short answer stating reported melting point for `COc1ccc2cc(CCl)c(CCl)cc2c1Cl` .
Reply: 103 °C

Ask: Give a short answer stating reported melting point for `NCCCCCCc1ccc(Cl)cc1` .
Reply: 71 °C

---

Reported melting point values for a set of molecules

{"molecule": "COc1cccc(OC)c1-c1ccc(CC[C@H](NC(=O)c2c(Cl)cccc2Cl)C(=O)O)cc1", "melting point": "105 to 107 °C"}
{"molecule": "CCOC(=O)C1(C)Oc2c(OC)cccc2C1=O (centres undefined)", "melting point": "81 to 82 °C"}
{"molecule": "CCCN(CCC)C(=O)Cn1c(-c2ccc(C(F)(F)F)cc2)nc2cccnc21", "melting point": "138 to 139 °C"}
{"molecule": "COC(=O)C1=C(C)NC(C)=C(C(=O)OCCCCCCCCBr)C1c1cccc([N+](=O)[O-])c1 (centres undefined)", "melting point": "115 °C"}
{"molecule": "Nc1ncc(CN2CC=C(c3ccc(F)cc3)CC2)c(N)n1", "melting point": "265 °C"}

Ask: Give a short answer stating reported melting point for `CS(=O)(=O)Cc1ccc2oc([N+](=O)[O-])c(-c3ccccc3)c2c1` .
Reply: 178 to 181 °C

Ask: Give a short answer stating reported melting point for CCOC[PH](=O)SCCSCCNC(=O)CCCCCn1c(=O)n(C)c(=O)c2[nH]cnc21 (centres undefined) .
Reply: 103 to 106 °C

Ask: Give a short answer stating reported melting point for `CCOC(=O)c1ccc(N2CCc3[nH]c4c(cnc5cc(Cl)ccc54)c3C2)cc1` .
Reply: 241 to 243 °C

Ask: Give a short answer stating reported melting point for COC(=O)C(Cc1ccc([N+](=O)[O-])cc1)NC(=O)NCc1cccc(Oc2ccccc2)c1 (single isomer, unassigned; (+)) .
Reply: 112 to 114 °C

---

Reported melting point values for a set of compounds

{"compound": "Nc1ccc(SCc2csc(NC=O)n2)cc1", "melting point": "180 to 182 °C"}
{"compound": "C=CCc1c(C(=O)OC)[nH]c2c(C)ccc(C)c12", "melting point": "135 to 136 °C"}
{"compound": "NC(=O)NC(=S)NC(=O)c1ccc(Cl)cc1", "melting point": "155 to 158 °C"}
{"compound": "OCc1ccc(-c2ccc3nc(-c4ccc(Cl)cc4)cn3c2)o1", "melting point": "197 to 199 °C"}

--- query ---
Ask: Give a short answer stating reported melting point for CN1CCC(C2(O)c3sccc3CCn3ncnc32)CC1 (stereo not given) .
Reply: 158 °C

---

Reported melting point values for a set of molecules

# count of solved cases: 5
{"molecule": "O=C1C(=Cc2ccccc2N2CCNCC2)SCCN1c1ccc(Cl)c(Cl)c1", "assayReadout": "melting point", "assayResult": "154 to 155 °C"}
{"molecule": "NP(N)(=S)N1CCCC1", "assayReadout": "melting point", "assayResult": "95 to 99 °C"}
{"molecule": "CCOC(=O)c1ccc(NCCOc2ccc(F)cc2)cc1", "assayReadout": "melting point", "assayResult": "122 to 123 °C"}
{"molecule": "Cc1nnc(SCC(=O)C23CC4CC(CC(C4)C2)C3)n1Cc1ccc(Cl)cc1", "assayReadout": "melting point", "assayResult": "158 to 159 °C"}
{"molecule": "CCCCCNC(=S)NC(=Nc1ccccc1)c1ccccc1", "assayReadout": "melting point", "assayResult": "157 to 158 °C"}

Ask: Give a short answer stating reported melting point for O=C1NC(Cc2ccc(OCc3ccccc3)cn2)C(=O)NC1Cc1ccc(Cl)cc1 (stereo not given) .
Reply: 227 to 229 °C

Ask: Give a short answer stating reported melting point for `ClCc1cnc2ccc(Cl)cc2c1Cl` .
Reply: 102 to 105 °C

Ask: Give a short answer stating reported melting point for `CCCCCCOc1c(OCCCCCC)c(OC(=O)C(C)(C)C)c2ccccc2c1OC(=O)C(C)(C)C` .
Reply: 111 to 112 °C

---

Reported melting point values for a set of compounds

# count of solved cases: 4
{"compound": "Cc1cc(C(O)(c2ccc(Cl)cc2)C(F)(F)F)ccc1N (stereo not given)", "melting point": "157 to 160 °C"}
{"compound": "COc1ccc2c(c1OC)CCCC(C(=O)O)=C2", "melting point": "208 to 209 °C"}
{"compound": "COc1ccc2nc3c(cc2c1)c(C#N)nn3C", "melting point": "190 to 191 °C"}
{"compound": "COC(=O)c1cc(Br)c(OC)c2c1OCO2", "melting point": "165 to 166 °C"}

--- query ---
Ask: Give a short answer stating reported melting point for `CCOC(=O)c1ccn(-c2ccc(OC(F)(F)F)cc2)n1` .
Reply: 76 to 78 °C

---

assayReadout: melting point

# count of solved cases: 3
{"molecule": "Nc1c(CC(=O)O)cccc1Oc1ccc(Cl)c(Cl)c1", "assayResult": "125 to 127 °C"}
{"molecule": "C=C(c1ccc(-c2ncnn2COCC)cc1)C(O)(Cn1cncn1)c1ccc(F)cc1F (configuration not stated)", "assayResult": "160 to 162 °C"}
{"molecule": "CC(C)(C)OC(=O)N[C@@H](Cc1ccc(-c2ccccc2)cc1)C(=O)NCCC#N", "assayResult": "163 to 164 °C"}

Ask: Give a short answer stating reported melting point for `Cc1ccc2sc3cc(CC(=O)O)ccc3c2c1` .
Reply: 185 to 187 °C

Ask: Give a short answer stating reported melting point for `CCCn1c(N)c(N=O)c(=O)n(CC2CCCCC2)c1=O` .
Reply: 225 to 226 °C

Ask: Give a short answer stating reported melting point for `COc1ccc(-n2nnc(-c3ccc(F)cc3F)c2N)cc1` .
Reply: 152 to 156 °C

Ask: Give a short answer stating reported melting point for `CCCN(CCC)Cc1ccccc1P(=NC(=O)OCC)(c1ccccc1)c1ccccc1` .
Reply: 102 to 104 °C

Ask: Give a short answer stating reported melting point for `Cc1cn(-c2nccc3ccccc23)cc1C(=O)O` .
Reply: 245 °C

Ask: Give a short answer stating reported melting point for `O=C(NCCN1CCCC1)c1ccc(OCc2ccc(-c3ccccc3)cc2)nc1` .
Reply: 153 to 157 °C

Ask: Give a short answer stating reported melting point for c1coc(C2Nc3ccccc3N3CCc4cccc2c43)c1 (configuration not stated) .
Reply: 141 to 144 °C

---

Reported melting point values for a set of compounds

# count of solved cases: 4
{"compound": "C[C@H](CO)Nc1cc(-n2cccn2)nc(-c2cccs2)n1", "assayResult": "136 to 137 °C"}
{"compound": "CC(c1ccccc1)N1CC(CF)(C(=O)N(Cc2ccccc2)Cc2ccccc2)CC1=O (stereo unspecified)", "assayResult": "113 to 115 °C"}
{"compound": "CCOC(=O)C(C#N)=NOS(C)(=O)=O", "assayResult": "79 to 83 °C"}
{"compound": "Cn1c(C(F)(F)F)cc(=O)n(-c2ccc3snc(C4(O)N=C(c5ccccc5)NC4=O)c3c2)c1=O (stereo unspecified)", "assayResult": "139 to 141 °C"}

Ask: Give a short answer stating reported melting point for COc1ccc2c(c1)CCC(C1CCC(O)C1(C)CC(C)(C)O)C2 (stereo unspecified) .
Reply: 123 to 125 °C

Ask: Give a short answer stating reported melting point for `N#Cc1ccc(C(=O)NNc2ccc(NC(=S)Nc3ccccc3)cc2)cc1` .
Reply: 184 to 185 °C

Ask: Give a short answer stating reported melting point for C#Cc1ccc2c(c1)C(c1ccccn1)=NC(C)c1c(C(=O)OCC)ncn1-2 (stereo unspecified) .
Reply: 235 to 237 °C

Ask: Give a short answer stating reported melting point for `CCCCCCc1ccc(C(=O)O)cc1[N+](=O)[O-]` .
Reply: 106 to 108 °C

Ask: Give a short answer stating reported melting point for `c1ccc(N2CCNNCC2)cc1` .
Reply: 211 to 218 °C

Ask: Give a short answer stating reported melting point for `COc1ccc(C2(C#Cc3ccnc(S(C)(=O)=O)n3)CCC(=O)CC2)cc1OC1CCCC1` .
Reply: 60 to 64 °C

Ask: Give a short answer stating reported melting point for `CCOc1nc(OCC)nc(-n2nc(SC)nc2N)n1` .
Reply: 201 °C
